The reader will find reported cytotoxicity at 72 h, 50 µM values listed item by item below.
- test method notes: Cytotoxicity against mouse RAW264.7 cells assessed as inhibition of cell viability at 50 uM after 72 hrs by MTT assay relative to control
- Assay type: cell-based
- condition context: read-out: INH
measured parameter: cytotoxicity at 72 h, 50 µM (%)

In [3]: df
Out[3]:
                             compound_smiles  value_reported
 0  O=C(Nc1ccc(Br)cc1)N1CCc2c(c(-c3ccccc3)nn2C(=O)c2ccccc2)C1              42
 1  Cc1ccc(NC(=O)N2CCc3c(c(-c4ccccc4)nn3C(=O)C3CCCCC3)C2)cc1            15.1
 2  O=C(c1ccccc1)n1nc(-c2ccccc2)c2c1CCN(C(=S)Nc1ccc(Cl)cc1)C2               0
 3  Cc1ccc(NC(=S)N2CCc3c(c(-c4ccccc4)nn3C(=O)C3CCCCC3)C2)cc1            27.8
 4  COc1ccc(NC(=S)N2CCc3c(c(-c4ccccc4)nn3C(=O)c3ccccc3)C2)cc1               0
 5  O=C(C1CCCCC1)n1nc(-c2ccccc2)c2c1CCN(C(=S)NCc1ccccc1)C2            20.6
 6  CC(C)NC(=O)N1CCc2c(c(-c3ccccc3)nn2C(=O)c2ccccc2)C1            10.6
 7  CC(=O)c1ccc(NC(=O)N2CCc3c(c(-c4ccccc4)nn3C(=O)C3CCCCC3)C2)cc1            22.5
 8  O=C(c1ccccc1)n1nc(-c2ccccc2)c2c1CCN(S(=O)(=O)c1ccc([N+](=O)[O-])cc1)C2            18.6
 9  O=C(c1ccccc1)n1nc(-c2ccccc2)c2c1CCN(C(=S)NCc1ccccc1)C2               0
10  C=CCNC(=S)N1CCc2c(c(-c3ccccc3)nn2C(=O)c2ccccc2)C1               6
11  O=C(Nc1ccc([N+](=O)[O-])cc1)N1CCc2c(c(-c3ccccc3)nn2C(=O)c2ccccc2)C1               0
12  CC(=O)c1ccc(S(=O)(=O)N2CCc3c(c(-c4ccccc4)nn3C(=O)c3ccccc3)C2)cc1             5.3
13  O=C(c1ccccc1)n1nc(-c2ccccc2)c2c1CCN(S(=O)(=O)c1ccc(F)cc1)C2               0
14  Cc1ccc(S(=O)(=O)N2CCc3c(c(-c4ccccc4)nn3C(=O)c3ccccc3)C2)cc1               0
15  O=C(C1CCCCC1)n1nc(-c2ccccc2)c2c1CCN(C(=S)Nc1ccc(Cl)cc1)C2            51.1
16  COc1ccc(NC(=O)N2CCc3c(c(-c4ccccc4)nn3C(=O)C3CCCCC3)C2)cc1            52.5
17  O=C(NCc1ccccc1)N1CCc2c(c(-c3ccccc3)nn2C(=O)c2ccccc2)C1             0.7
18  O=C(Nc1ccc(Cl)cc1)N1CCc2c(c(-c3ccccc3)nn2C(=O)C2CCCCC2)C1               4
19  COc1ccc(NC(=S)N2CCc3c(c(-c4ccccc4)nn3C(=O)C3CCCCC3)C2)cc1             9.5
20  O=C(c1ccccc1)n1nc(-c2ccccc2)c2c1CCN(C(=S)Nc1ccc(F)cc1)C2             0.5
21  O=C(C1CCCCC1)n1nc(-c2ccccc2)c2c1CCN(S(=O)(=O)c1ccc([N+](=O)[O-])cc1)C2             8.3
22  O=C(c1ccccc1)n1nc(-c2ccccc2)c2c1CCN(S(=O)(=O)c1cccs1)C2             6.8
23  O=C(Nc1cccc2ccccc12)N1CCc2c(c(-c3ccccc3)nn2C(=O)c2ccccc2)C1             4.7
24  O=C(Nc1ccc([N+](=O)[O-])cc1)N1CCc2c(c(-c3ccccc3)nn2C(=O)C2CCCCC2)C1            14.9
25  O=C(Nc1ccc(Br)cc1)N1CCc2c(c(-c3ccccc3)nn2C(=O)C2CCCCC2)C1               0
26  O=C(C1CCCCC1)n1nc(-c2ccccc2)c2c1CCN(S(=O)(=O)c1ccc(F)cc1)C2             1.4
27  O=C(C1CCCCC1)n1nc(-c2ccccc2)c2c1CCN(C(=S)Nc1ccc(F)cc1)C2            58.4
28  CCOc1ccc(NC(=O)N2CCc3c(c(-c4ccccc4)nn3C(=O)C3CCCCC3)C2)cc1             4.9
29  CCOc1ccc(NC(=O)N2CCc3c(c(-c4ccccc4)nn3C(=O)c3ccccc3)C2)cc1               0
30  Cc1ccc(NC(=S)N2CCc3c(c(-c4ccccc4)nn3C(=O)c3ccccc3)C2)cc1               0
31  Cc1ccc(S(=O)(=O)N2CCc3c(c(-c4ccccc4)nn3C(=O)C3CCCCC3)C2)cc1               0
32  O=C(Nc1ccc(Cl)cc1)N1CCc2c(c(-c3ccccc3)nn2C(=O)c2ccccc2)C1             4.9
33  O=C(Nc1cccc2ccccc12)N1CCc2c(c(-c3ccccc3)nn2C(=O)C2CCCCC2)C1             4.1
34  O=C(C1CCCCC1)n1nc(-c2ccccc2)c2c1CCN(S(=O)(=O)c1cccs1)C2             8.1
35  CC(=O)c1ccc(S(=O)(=O)N2CCc3c(c(-c4ccccc4)nn3C(=O)C3CCCCC3)C2)cc1            11.5
36  O=C(NCc1ccccc1)N1CCc2c(c(-c3ccccc3)nn2C(=O)C2CCCCC2)C1            35.7
